# Test system: human liver acylamidase
# experimental protocol: Susceptibility to human liver acylamidase (crude liver extract, 5'-DFCR formed by HPLC)
# Assay type: in vitro ADME
# test parameters: tetrahydrouridine 0.4 mM, 37° C., 60 min
endpoint label: Acylamidase activity, Human Liver (nmol/mg protein/hr)
Numbers only; they are read as nmol/mg protein/hr.

Fill: Acylamidase activity, Human Liver (human liver acylamidase) for this compound `CCCC(CCC)COC(=O)Nc1nc(=O)n([C@@H]2O[C@H](C)[C@@H](O)[C@H]2O)cc1F`
160

Fill: Acylamidase activity, Human Liver (human liver acylamidase) for this compound `C[C@H]1O[C@@H](n2cc(F)c(NC(=O)OCCC3CCCCC3)nc2=O)[C@H](O)[C@@H]1O`
320

Fill: Acylamidase activity, Human Liver (human liver acylamidase) for this compound `CCC(CC)COC(=O)Nc1nc(=O)n([C@@H]2O[C@H](C)[C@@H](O)[C@H]2O)cc1F`
210

Fill: Acylamidase activity, Human Liver (human liver acylamidase) for this compound `CC(C)CCOC(=O)Nc1nc(=O)n([C@@H]2O[C@H](C)[C@@H](O)[C@H]2O)cc1F`
74

Further cases:
Fill: Acylamidase activity, Human Liver (human liver acylamidase) for this compound `CCCCCCOC(=O)Nc1nc(=O)n([C@@H]2O[C@H](C)[C@@H](O)[C@H]2O)cc1F`
220

Fill: Acylamidase activity, Human Liver (human liver acylamidase) for this compound `CCCCCOC(=O)Nc1nc(=O)n([C@@H]2O[C@H](C)[C@@H](O)[C@H]2O)cc1F`
190

Fill: Acylamidase activity, Human Liver (human liver acylamidase) for this compound `C[C@H]1O[C@@H](n2cc(F)c(NC(=O)OCC(C)(C)C)nc2=O)[C@H](O)[C@@H]1O`
52

Fill: Acylamidase activity, Human Liver (human liver acylamidase) for this compound `CC(C)COC(=O)Nc1nc(=O)n([C@@H]2O[C@H](C)[C@@H](O)[C@H]2O)cc1F`
64

Fill: Acylamidase activity, Human Liver (human liver acylamidase) for this compound `C[C@H]1O[C@@H](n2cc(F)c(NC(=O)OCC3CCCCC3)nc2=O)[C@H](O)[C@@H]1O`
210

Fill: Acylamidase activity, Human Liver (human liver acylamidase) for this compound `C[C@H]1O[C@@H](n2cc(F)c(NC(=O)OCCCc3ccccc3)nc2=O)[C@H](O)[C@@H]1O`
110

Fill: Acylamidase activity, Human Liver (human liver acylamidase) for this compound `CCCCCCCOC(=O)Nc1nc(=O)n([C@@H]2O[C@H](C)[C@@H](O)[C@H]2O)cc1F`
110

Fill: Acylamidase activity, Human Liver (human liver acylamidase) for this compound `CCCCOC(=O)Nc1nc(=O)n([C@@H]2O[C@H](C)[C@@H](O)[C@H]2O)cc1F`
71

Fill: Acylamidase activity, Human Liver (human liver acylamidase) for this compound `C[C@H]1O[C@@H](n2cc(F)c(NC(=O)OCCc3ccccc3)nc2=O)[C@H](O)[C@@H]1O`
160

Fill: Acylamidase activity, Human Liver (human liver acylamidase) for this compound CCCCC(CC)COC(=O)Nc1nc(=O)n([C@@H]2O[C@H](C)[C@@H](O)[C@H]2O)cc1F (stereo partly shown)
560

Fill: Acylamidase activity, Human Liver (human liver acylamidase) for this compound `C[C@H]1O[C@@H](n2cc(F)c(NC(=O)OCCCC3CCCCC3)nc2=O)[C@H](O)[C@@H]1O`
82

Fill: Acylamidase activity, Human Liver (human liver acylamidase) for this compound `C[C@H]1O[C@@H](n2cc(F)c(NC(=O)OCCC(C)(C)C)nc2=O)[C@H](O)[C@@H]1O`
50

----------
# System: CXF280 Human Colon Carcinoma
# experimental protocol: Antitumor testing against human colon cancer xenograft CXF280
# Type: in vivo, BALB/c nu/nu mice
# test parameters: Mus musculus, po, Exp. 2, 0.13 mmol/kg/day x 21, oral; read-out: % Growth inhibition
# binarize inhibition in vivo at 0.13 mmol/kg/day: threshold 50% inclusive, high side yes (1), low side no (0)

Check the entry `CCCCCCCOC(=O)Nc1nc(=O)n([C@@H]2O[C@H](C)[C@@H](O)[C@H]2O)cc1F` : does inhibition in vivo at 0.13 mmol/kg/day equal or exceed 50%?
no (0)

Check the entry O=c1[nH]cc(F)c(=O)[nH]1 [Example 5-FU, 5-fluorouracil, reference compound] : does inhibition in vivo at 0.13 mmol/kg/day equal or exceed 50%?
no (0)

Check the entry `CC(C)CCOC(=O)Nc1nc(=O)n([C@@H]2O[C@H](C)[C@@H](O)[C@H]2O)cc1F` : does inhibition in vivo at 0.13 mmol/kg/day equal or exceed 50%?
yes (1)

Check the entry `CCCOC(=O)Nc1nc(=O)n([C@@H]2O[C@H](C)[C@@H](O)[C@H]2O)cc1F` : does inhibition in vivo at 0.13 mmol/kg/day equal or exceed 50%?
no (0)

Then there is this compound:
Check the entry `CCCCOC(=O)Nc1nc(=O)n([C@@H]2O[C@H](C)[C@@H](O)[C@H]2O)cc1F` : does inhibition in vivo at 0.13 mmol/kg/day equal or exceed 50%?
no (0)

----------
# experimental protocol: Pharmacokinetic profiles in monkeys (plasma 5'-DFUR after oral administration)
# Format: in vivo
# test parameters: cynomolgous monkeys, metabolite 5'-DFUR in plasma
endpoint label: Plasma 5'-DFUR AUC (µg·h/mL)
Numbers only; they are read as µg·h/mL.

# example entries with known answers
Give reported Plasma 5'-DFUR AUC value for `CCCOC(=O)Nc1nc(=O)n([C@@H]2O[C@H](C)[C@@H](O)[C@H]2O)cc1F`
2.03

Give reported Plasma 5'-DFUR AUC value for `C[C@H]1O[C@@H](n2cc(F)c(NC(=O)OCC(C)(C)C)nc2=O)[C@H](O)[C@@H]1O`
1.40

Give reported Plasma 5'-DFUR AUC value for `C[C@H]1O[C@@H](n2cc(F)c(NC(=O)OCC3CCCCC3)nc2=O)[C@H](O)[C@@H]1O`
2.52

We now examine a further compound.
Give reported Plasma 5'-DFUR AUC value for `CC(C)CCOC(=O)Nc1nc(=O)n([C@@H]2O[C@H](C)[C@@H](O)[C@H]2O)cc1F`
2.40

----------
Quick reference for inhibition in vivo at 1.5 mmol/kg/day among some molecules
# Tested on: CXF280 Human Colon Carcinoma
# experimental protocol: Antitumor testing against human colon cancer xenograft CXF280
# Assay type: in vivo, BALB/c nu/nu mice
# test parameters: Mus musculus, po, Exp. 2, 1.5 mmol/kg/day x 21, oral; read-out: % Growth inhibition

# example entries with known answers
Give reported inhibition in vivo at 1.5 mmol/kg/day value for `CCCCCCCOC(=O)Nc1nc(=O)n([C@@H]2O[C@H](C)[C@@H](O)[C@H]2O)cc1F`
94%

Give reported inhibition in vivo at 1.5 mmol/kg/day value for `CCCCOC(=O)Nc1nc(=O)n([C@@H]2O[C@H](C)[C@@H](O)[C@H]2O)cc1F`
95%

Give reported inhibition in vivo at 1.5 mmol/kg/day value for `CC(C)CCOC(=O)Nc1nc(=O)n([C@@H]2O[C@H](C)[C@@H](O)[C@H]2O)cc1F`
94%

We now examine a further molecule.
Give reported inhibition in vivo at 1.5 mmol/kg/day value for `CCCOC(=O)Nc1nc(=O)n([C@@H]2O[C@H](C)[C@@H](O)[C@H]2O)cc1F`
86%

----------
# System: monkey liver acylamidase
# experimental protocol: Susceptibility to monkey liver acylamidase (crude liver extract, 5'-DFCR formed by HPLC)
# Type: in vitro ADME
# test parameters: tetrahydrouridine 0.4 mM, 37° C., 60 min
Quick reference for Acylamidase activity, Monkey Liver among some molecules
Numbers only; they are read as nmol/mg protein/hr.

# example entries with known answers
Fill: Acylamidase activity, Monkey Liver (monkey liver acylamidase) for this molecule CCC(CC)COC(=O)Nc1nc(=O)n([C@@H]2O[C@H](C)[C@@H](O)[C@H]2O)cc1F [Example 15]
23

Fill: Acylamidase activity, Monkey Liver (monkey liver acylamidase) for this molecule CCCCCOC(=O)Nc1nc(=O)n([C@@H]2O[C@H](C)[C@@H](O)[C@H]2O)cc1F [Example 12]
29

Fill: Acylamidase activity, Monkey Liver (monkey liver acylamidase) for this molecule CCCCOC(=O)Nc1nc(=O)n([C@@H]2O[C@H](C)[C@@H](O)[C@H]2O)cc1F [Example 11]
20

Fill: Acylamidase activity, Monkey Liver (monkey liver acylamidase) for this molecule C[C@H]1O[C@@H](n2cc(F)c(NC(=O)OCCCC3CCCCC3)nc2=O)[C@H](O)[C@@H]1O [Example 21]
26

Further cases:
Fill: Acylamidase activity, Monkey Liver (monkey liver acylamidase) for this molecule C[C@H]1O[C@@H](n2cc(F)c(NC(=O)OCCC3CCCCC3)nc2=O)[C@H](O)[C@@H]1O [Example 20]
19

Fill: Acylamidase activity, Monkey Liver (monkey liver acylamidase) for this molecule C[C@H]1O[C@@H](n2cc(F)c(NC(=O)OCCCc3ccccc3)nc2=O)[C@H](O)[C@@H]1O [Example 22]
43

Fill: Acylamidase activity, Monkey Liver (monkey liver acylamidase) for this molecule C[C@H]1O[C@@H](n2cc(F)c(NC(=O)OCCC(C)(C)C)nc2=O)[C@H](O)[C@@H]1O [Example 29]
22

Fill: Acylamidase activity, Monkey Liver (monkey liver acylamidase) for this molecule CC(C)CCOC(=O)Nc1nc(=O)n([C@@H]2O[C@H](C)[C@@H](O)[C@H]2O)cc1F [Example 14]
32

Fill: Acylamidase activity, Monkey Liver (monkey liver acylamidase) for this molecule CC(C)COC(=O)Nc1nc(=O)n([C@@H]2O[C@H](C)[C@@H](O)[C@H]2O)cc1F [Example 24]
18

Fill: Acylamidase activity, Monkey Liver (monkey liver acylamidase) for this molecule CCCCCCCOC(=O)Nc1nc(=O)n([C@@H]2O[C@H](C)[C@@H](O)[C@H]2O)cc1F [Example 27]
59

Fill: Acylamidase activity, Monkey Liver (monkey liver acylamidase) for this molecule C[C@H]1O[C@@H](n2cc(F)c(NC(=O)OCC3CCCCC3)nc2=O)[C@H](O)[C@@H]1O [Example 16]
33
